Each recorded value in this set is attributed to paper PMC9033776.

- system name: BRD3_(bromo1) (amino acids 24–144) (UniProt Q15059 24-144)
- Sequence (Q15059 24-144): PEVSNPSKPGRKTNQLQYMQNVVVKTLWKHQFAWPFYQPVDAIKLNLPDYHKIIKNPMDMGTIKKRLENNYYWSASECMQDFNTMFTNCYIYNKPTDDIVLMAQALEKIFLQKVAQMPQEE
- assay procedure: ITC
Where no end group is shown, it is not given here.
readout name: Kd (mM)
One number for each entry, in mM.

Q) Which Kd value belongs to AGGK(Ac)AGK(Ac)DSGK(Ac)AKTK [tri-acetylated H2A.Z (1–15) K4acK7acK11ac peptide] ?
A) 1.5
